molecular target: Glutamate NMDA receptor; test: Inhibition of [3H]DCKA binding to NMDA receptor of rat brain membranes.; type: cell membranes, Membrane
measurement kind: IC50

In the examples that follow, each entry is paired with its recorded IC50.
[[record]]
structure_string = "O=[N+]([O-])c1c(O)nc2c(Cl)c(Cl)c(Cl)cc2c1O"
target_or_system = "Glutamate NMDA receptor"
measurement_kind = "IC50"
assay_result = "> 100 µM"

[[record]]
structure_string = "O=Nc1c(O)nc2c(Cl)cccc2c1O"
target_or_system = "Glutamate NMDA receptor"
measurement_kind = "IC50"
assay_result = "> 100 µM"


Any idea what its IC50 is? The compound is O=[N+]([O-])c1c(O)nc2c(F)c(F)c(F)c(F)c2c1O
> 100 µM

Reference for the values: ChEMBL document CHEMBL1129748
